Test system: HL-1
Assay: relative cell viability (CellTiter-Glo) vs DMSO control (% of DMSO control); higher = more viable cells
Conditions: oxygen condition: normoxia 72 h; 40 nM
Counter-ions that a name gives are not always drawn.
MEASURE: relative cell viability

Nc1ncn([C@H]2C[C@H](O)[C@@H](CO)O2)c(=O)n1 | 101
COc1cc2c(cc1O)CC[C@@H]1[C@@H]2CC[C@]2(C)[C@@H](O)CC[C@@H]12 | 102
OC[C@@H](O)[C@@H](O)[C@H](O)[C@@H](O)CO | 100
O=C(c1ccc(OCCN2CCCCC2)cc1)c1c(-c2ccc(O)cc2)sc2cc(O)ccc12 | 112
CCC[C@H](N[C@@H](C)C(=O)N1[C@H](C(=O)O)C[C@@H]2CCCC[C@@H]21)C(=O)OCC | 109
CCOC(=O)[C@H](CCc1ccccc1)N[C@H]1CCc2ccccc2N(CC(=O)O)C1=O [Benazepril hydrochloride] | 101
O=C(O)/C=C/c1ccc(Cn2ccnc2)cc1 [Ozagrel] | 105
CN1CCN(CCCN2c3ccccc3Sc3ccc(C(F)(F)F)cc32)CC1 [Trifluoperazine 2HCl] | 107
CCCCC1=NC2(CCCC2)C(=O)N1Cc1ccc(-c2ccccc2-c2nnn[nH]2)cc1 | 107
CCCCOc1ccc(CC(=O)NO)cc1 | 105
CC(=O)O[C@H]1C(=O)[C@@]2(C)[C@H]([C@H](OC(=O)c3ccccc3)[C@]3(O)C[C@H](OC(=O)[C@H](O)[C@@H](NC(=O)c4ccccc4)c4ccccc4)C(C)=C1C3(C)C)[C@]1(OC(C)=O)CO[C@@H]1C[C@@H]2O | 52.3
CC(=O)Oc1ccccc1C(=O)O | 95.4
CCOc1nc2cccc(C(=O)O)c2n1Cc1ccc(-c2ccccc2-c2noc(=O)[nH]2)cc1 | 109
COC(=O)C1=C(C)NC(C)=C(C(=O)OC)C1c1ccccc1[N+](=O)[O-] | 105
CS(=O)(=O)Nc1ccc([N+](=O)[O-])cc1Oc1ccccc1 [Nimesulide] | 108
C[C@H]1O[C@H](O[C@H]2[C@H](O)[C@@H](O)[C@@H](O[C@H]3[C@H](O)[C@@H](O)C(O)O[C@@H]3CO)O[C@@H]2CO)[C@H](O)[C@@H](O)[C@@H]1N[C@H]1C=C(CO)[C@@H](O)[C@H](O)[C@H]1O (stereo partly drawn) | 106
C#Cc1cccc(Nc2ncnc3cc(OCCOC)c(OCCOC)cc23)c1 [Erlotinib HCl] | 112
Nc1c2c(nc3ccccc13)CCCC2 [Tacrine HCl] | 94.1
CC(C)(C(=O)O)c1ccc(C(O)CCCN2CCC(C(O)(c3ccccc3)c3ccccc3)CC2)cc1 (stereo not drawn) [Fexofenadine HCl] | 107
CC[C@H](C)C(=O)O[C@H]1CCC=C2C=C[C@H](C)[C@H](CC[C@@H]3C[C@@H](O)CC(=O)O3)[C@H]21 | 101
Nc1ccc(/N=N/c2ccccc2)c(N)n1 [Phenazopyridine HCl] | 104
O=P(O)(O)C(O)(Cn1ccnc1)P(=O)(O)O | 104
CN(C)CCOc1ccc(/C(=C(/CCCl)c2ccccc2)c2ccccc2)cc1 [Toremifene Citrate] | 103
CCOC(=O)c1c(C)n(C)c2ccc(O)cc12 [Mecarbinate] | 101
CCN(CC)CCNC(=O)c1c(C)[nH]c(/C=C2\C(=O)Nc3ccc(F)cc32)c1C [Sunitinib Malate] | 105
CC(=O)Nc1ccccc1 [Acetanilide] | 101
C=CCc1cc(OC)c(O)c(C(=O)NCCO)c1 [Alibendol] | 101
Clc1ccc2c(c1)CCc1cccnc1C2=C1CCNCC1 | 105
CC[C@H]1OC(=O)[C@H](C)[C@@H](O[C@H]2C[C@@](C)(OC)[C@@H](O)[C@H](C)O2)[C@H](C)[C@@H](O[C@@H]2O[C@H](C)C[C@H](N(C)C)[C@H]2O)[C@](C)(O)C[C@@H](C)/C(=N\OCOCCOC)[C@H](C)[C@@H](O)[C@]1(C)O | 101
COc1ccc(CC2c3cc(OC)c(OC)cc3CC[N+]2(C)CCC(=O)OCCCCCOC(=O)CC[N+]2(C)CCc3cc(OC)c(OC)cc3C2Cc2ccc(OC)c(OC)c2)cc1OC (stereo not drawn) [Atracurium besylate] | 101
CC(C)(Oc1ccc(Cl)cc1)C(=O)O | 104
CCCCOc1cc(C(=O)OCCN(CC)CC)ccc1N [Oxybuprocaine HCl] | 103
Cc1c(-c2ccccc2)oc2c(C(=O)OCCN3CCCCC3)cccc2c1=O [Flavoxate HCl] | 103

###

Test system: HL-1
Experiment: relative cell viability (CellTiter-Glo) vs DMSO control (% of DMSO control); higher = more viable cells
Conditions: oxygen condition: normoxia 72 h; 40 nM
Where a name gives a salt, the structure may show the parent alone.
Criterion: relative cell viability strictly under 100. Met: label 1. Not met: label 0.

CC(C)NCC(O)COc1ccc(CCOCC2CC2)cc1 (stereo not given) [Betaxolol] | label 1
CCN1CCCC1CNC(=O)c1cc(S(=O)(=O)CC)c(N)cc1OC (stereo not given) [Amisulpride] | label 0
CN(Cc1cc(Br)cc(Br)c1N)C1CCCCC1 [Bromhexine HCl] | label 0
O=C1N=C(O)NC1(c1ccccc1)c1ccccc1 [Phenytoin sodium] | label 1
CCC(CC)[C@H](NC(C)=O)[C@@H]1[C@H](O)[C@@H](C(=O)O)C[C@H]1NC(=N)N [Peramivir Trihydrate] | label 0
Nc1nc(Cl)nc2c1ncn2[C@@H]1O[C@H](CO)[C@@H](O)[C@@H]1F [Clofarabine] | label 0
Nc1nc(Cl)nc2c1ncn2[C@H]1C[C@H](O)[C@@H](CO)O1 [Cladribine] | label 1
N=C(N)NC(=N)N1CCOCC1 [Moroxydine] | label 1
Clc1ccccc1CN1CCc2sccc2C1 [Ticlopidine HCl] | label 1
COC(=O)CCc1ccc(OCC(O)CNC(C)C)cc1 (stereo not given) [Esmolol HCl] | label 0
CCCN(CCC)CCc1cccc2c1CC(=O)N2 [Ropinirole HCl] | label 0
Cn1ccnc1S [Methimazole] | label 0
CCOc1cc(CC(=O)N[C@@H](CC(C)C)c2ccccc2N2CCCCC2)ccc1C(=O)O [Repaglinide] | label 1
COc1ccc([C@H]2CNC(=O)C2)cc1OC1CCCC1 [S-(+)-Rolipram] | label 1
CCCC(CCC)C(=O)O [Valproic acid sodium salt] | label 0
O=C1Cc2cc(CCN3CCN(c4nsc5ccccc45)CC3)c(Cl)cc2N1 [Ziprasidone hydrochloride] | label 0
Fc1ccc(C(c2ccc(F)cc2)N2CCN(C/C=C/c3ccccc3)CC2)cc1 [Flunarizine 2HCl] | label 0
CCc1ccc(CCOc2ccc(CC3SC(=O)NC3=O)cc2)nc1 (stereo not given) [Pioglitazone] | label 0
CO[C@H]1C(=O)[C@]2(C)[C@@H](OC)C[C@H]3OC[C@@]3(OC(C)=O)[C@H]2[C@H](OC(=O)c2ccccc2)[C@]2(O)C[C@H](OC(=O)[C@H](O)[C@@H](NC(=O)OC(C)(C)C)c3ccccc3)C(C)=C1C2(C)C [Cabazitaxel] | label 1
CC(O)(P(=O)(O)O)P(=O)(O)O [Etidronate] | label 1
CS(=O)(=O)c1ccc(C(=O)Nc2ccc(Cl)c(-c3ccccn3)c2)c(Cl)c1 [Vismodegib] | label 0
CCCCc1ncc(/C=C(\Cc2cccs2)C(=O)O)n1Cc1ccc(C(=O)O)cc1 [Eprosartan Mesylate] | label 0
CS(=O)(=O)c1ccc(C2=C(c3ccccc3)C(=O)OC2)cc1 [Rofecoxib] | label 0
COCCOC(=O)C1=C(C)NC(C)=C(C(=O)OC/C=C/c2ccccc2)C1c1cccc([N+](=O)[O-])c1 (stereo not given) [Cilnidipine] | label 0

###

System: HL-1
Experiment: relative cell viability (CellTiter-Glo) vs DMSO control (% of DMSO control); higher = more viable cells
Conditions: oxygen condition: normoxia 72 h; 1000 nM
Recorded relative cell viability by entry
MEASURE: relative cell viability

CC(C)c1nc(CN(C)C(=O)N[C@@H](CCN2CCOCC2)C(=O)N[C@H](CC[C@H](Cc2ccccc2)NC(=O)OCc2cncs2)Cc2ccccc2)cs1 [Cobicistat] | 108
NC(=O)OCC(COC(N)=O)c1ccccc1 [Felbamate] | 105
N[C@@H](Cc1cc(I)c(Oc2cc(I)c(O)c(I)c2)c(I)c1)C(=O)O | 99.3
COc1nc(N)nc2c1ncn2[C@@H]1O[C@H](CO)[C@@H](O)[C@@H]1O | 108

###

System: HL-1
Test: relative cell viability (CellTiter-Glo) vs DMSO control (% of DMSO control); higher = more viable cells
Details: oxygen condition: normoxia 72 h; 200 nM
Counter-ions that a name gives are not always drawn.
MEASURE: relative cell viability

N=C(N)NCCN1CCCCCCC1 [Guanethidine Sulfate] | 107
Cc1ncc(C[n+]2csc(CCO)c2C)c(N)n1 [Thiamine HCl] | 104
CC(=O)O[C@H]1C[C@@H]2CC[C@@H]3[C@H](CC[C@@]4(C)[C@H]3C[C@H]([N+]3(C)CCCCC3)[C@@H]4OC(C)=O)[C@@]2(C)C[C@@H]1N1CCCCC1 [Vecuronium Bromide] | 115
CC(C)c1c(C(=O)Nc2ccccc2)c(-c2ccccc2)c(-c2ccc(F)cc2)n1CC[C@@H](O)C[C@@H](O)CC(=O)O | 98.8
